Experiment: Primary qHTS for delayed death inhibitors of the malarial parasite plastid, 96 hour incubation; further: potency means the concentration at half of the fitted maximal effect
Settings: P. falciparum luciferase reporter growth; series mostly up to 28.7 µM
Hit rate of the full screen: of about 320,000 compounds, about 22,000 (6.9%) were called active. Inconclusive results (about 27%) are left out. For the sample, actives were picked, then their nearest neighbours and some compounds at random.
measured_quantity: Potency

COc1ccc([N+](=O)[O-])cc1-c1nc2ccccc2nc1-c1ccccc1	inactive
Clc1ccc(C[n+]2cc(-c3ccccc3)n3c2CCC3)cc1	0.586 µM (active)
O=S(=O)(NCCc1ccccn1)c1cc(Cl)cc(Cl)c1O	inactive
COc1ccc(NC(=O)N2CCC(Cc3ccccc3)CC2)cc1	inactive

Prompt: Give a short answer stating reported Potency for COc1cccc(C(=O)CC(=O)C(=O)Nc2ccc([N+](=O)[O-])cc2C)c1 .
Completion: inactive

Prompt: Give a short answer stating reported Potency for Cc1nc(-c2ccc([N+](=O)[O-])cc2)c(-c2ccccc2)o1 .
Completion: inactive
